Gmax (%), total germination as percentage of sown seeds listing for selected compounds.
system: temperate cauliflower Spacestar seeds (Brassica oleracea cv Botrytis); assay: Standard paper germination test for Brassica, suboptimal conditions; format: in vivo; settings: Spacestar 11B314 (not cold sensitive); 25 μM; 10° C. in the light; set B
The reply should be a number in %, with the unit left off.

INSERT INTO measurements (compound, assay_target, result_number) VALUES
  ('CC1=CC(OC=C2C(=O)N(C)C3c4ccccc4CC23)OC1=O (stereo not shown)', 'temperate cauliflower Spacestar seeds (Brassica oleracea cv Botrytis)', 93.5),
  ('CC1=CC(OC=C2C(=O)NC3c4cccc(C)c4CC23)OC1=O (mixture of isomers)', 'temperate cauliflower Spacestar seeds (Brassica oleracea cv Botrytis)', 94.0),
  ('CC1=C[C@H](O/C=C2/C(=O)O[C@@H]3c4ccccc4C[C@H]23)OC1=O [GR24, reference compound]', 'temperate cauliflower Spacestar seeds (Brassica oleracea cv Botrytis)', 93.0);

For the next question, use this compound.
query: Tell us which Gmax (%), total germination as percentage of sown seeds value is on record for CC1=C(C)C(OC=C2C(=O)NC3c4ccccc4CC23)OC1=O (stereo not shown)
result: 95.0

The reported numbers originate from patent US20150152091A1.
